Entries annotated with measured IC50
Target: AURORA B (Homo sapiens)
Sequence (Q96GD4 whole entry): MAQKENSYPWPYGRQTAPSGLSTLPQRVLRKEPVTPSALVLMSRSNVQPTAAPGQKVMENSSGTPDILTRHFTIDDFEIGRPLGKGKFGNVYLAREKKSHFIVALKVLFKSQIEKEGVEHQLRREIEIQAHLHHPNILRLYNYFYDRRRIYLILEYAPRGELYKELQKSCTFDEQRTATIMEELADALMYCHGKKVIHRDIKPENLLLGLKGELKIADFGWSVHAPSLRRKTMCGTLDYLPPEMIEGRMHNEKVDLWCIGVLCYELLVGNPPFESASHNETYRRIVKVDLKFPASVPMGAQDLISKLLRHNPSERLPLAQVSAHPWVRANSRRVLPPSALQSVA
Test: In vitro filtration assay for AURORA B inhibitory activity
Format: biochemical
Details: peptide (C(LRRWSLG)×4), 1 μM unlabeled ATP, 25° C. 40 minutes, read-out: Aurora B see C.3 (pIC50) (converted)

structureString: COCCCN(C(=O)OC(C)(C)C)C1CCN(Cc2ccc(N(C(=O)OC(C)(C)C)c3ncc4cnn(C5CCCCC5)c4n3)cc2)CC1
comparativeSign: >
IC50 / µM: 10
--
structureString: CN1CCN(c2ccc(Nc3ncc4cnn(C5CCCC5)c4n3)cc2)CC1
comparativeSign: =
IC50 / µM: 0.398
--
structureString: CC(C)(C)OC(=O)N1CCN(c2ccc(Nc3ncc4cnn(C5CCCCC5)c4n3)nc2)CC1
comparativeSign: >
IC50 / µM: 10
--
structureString: c1cc(Nc2ncc3cnn([C@H]4C[C@@H]5CC[C@H]4C5)c3n2)ccc1CN1CCOCC1
comparativeSign: =
IC50 / µM: 0.316
--
structureString: CN1CCN(Cc2ccc(N(C(=O)OC(C)(C)C)c3ncc4cnn([C@H]5C[C@@H]6CC[C@H]5C6)c4n3)cc2)CC1
comparativeSign: >
IC50 / µM: 10
--
structureString: c1cc(Nc2ncc3cnn(C4CCCCC4)c3n2)ccc1CN1CCOCC1
comparativeSign: =
IC50 / µM: 7.94
--
structureString: O=c1[nH]n(C2CCCC2)c2nc(Nc3ccc(N4CCOCC4)cc3)ncc12
comparativeSign: >
IC50 / µM: 10
--
structureString: OCCN1CCC(NCc2ccc(Nc3ncc4cnn(C5CCCCC5)c4n3)cc2)CC1
comparativeSign: =
IC50 / µM: 1.26
--
structureString: c1ccc(N2CCN(c3ccc(Nc4ncc5cnn(C6CCCCC6)c5n4)cc3)CC2)nc1
comparativeSign: >
IC50 / µM: 10
--
structureString: OCCCC1CCN(c2ccc(Nc3ncc4cnn(C5CCCCC5)c4n3)cc2)CC1
comparativeSign: >
IC50 / µM: 10
--
structureString: CN1CCC(N(Cc2ccc(Nc3ncc4cnn(C5CCCCC5)c4n3)cc2)C(=O)OC(C)(C)C)CC1
comparativeSign: =
IC50 / µM: 6.31
--
structureString: CN1CCN(c2ccc(Nc3ncc4c(=O)[nH]n(C5CCCCC5)c4n3)cc2)CC1
comparativeSign: =
IC50 / µM: 0.398
--
structureString: c1cc(Nc2ncc3cnn(C4CCCCC4)c3n2)ccc1CNC1CCOCC1
comparativeSign: =
IC50 / µM: 1
--
structureString: O=c1[nH]n(C2CCCCC2)c2nc(Nc3ccc(N4CCC(CCCO)CC4)cc3)ncc12
comparativeSign: >
IC50 / µM: 10
--
structureString: CC(C)(C)OC(=O)N1CCN(c2ccc(Nc3ncc4cnn(C5CCCCC5)c4n3)cc2)CC1
comparativeSign: =
IC50 / µM: 3.16
--
structureString: O=C(NC1CCOCC1)c1ccc(Nc2ncc3cnn(C4CCCCC4)c3n2)cc1
comparativeSign: =
IC50 / µM: 0.631

Origin of values: patent US7947695B2
